Target: TYK2 JH2 (Homo sapiens, UniProt P29597)
Construct: purchased DiscoverX (KINOMEscan KdELECT service); host or cells: E. coli BL21-derived (T7 phage display) or HEK-293
Sequence (P29597 589-875 limits assumed): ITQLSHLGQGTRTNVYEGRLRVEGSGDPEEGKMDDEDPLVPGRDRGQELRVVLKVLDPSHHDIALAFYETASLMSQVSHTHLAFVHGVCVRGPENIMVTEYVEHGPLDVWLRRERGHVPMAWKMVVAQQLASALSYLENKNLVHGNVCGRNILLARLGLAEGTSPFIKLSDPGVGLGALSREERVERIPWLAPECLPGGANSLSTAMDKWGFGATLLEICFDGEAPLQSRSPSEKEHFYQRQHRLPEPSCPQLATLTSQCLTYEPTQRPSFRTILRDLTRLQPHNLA
Experiment: TYK2 JH2 binding assay (KINOMEscan KdELECT competitive binding)
Details: TYK2 JH2 domain, KINOMEscan KdELECT (Assay A); read-out: Biochemical TYK2_JH2_Kd
pKd: −log10 of the molar value.
Each entry below carries its reported pKd.

{"columns": ["Compound", "Tested On", "pKd"],
 "data": [
  ["CNc1ncc(-c2ccccc2)c2cc(NCc3ccc(OC)cc3)ncc12 [Example 98]", "TYK2 JH2 (Homo sapiens, UniProt P29597)", "5.00 to 6.00"],
  ["CNc1ncc(-c2cc3ccccc3o2)c2cc(NC(=O)C3CC3)ncc12 [Example 114]", "TYK2 JH2 (Homo sapiens, UniProt P29597)", "≥ 7.00"],
  ["CNc1ncc(C(=O)N2CCC(Oc3ccccc3)CC2)c2cc(NC(=O)C3CC3)ncc12 [Example 121]", "TYK2 JH2 (Homo sapiens, UniProt P29597)", "5.00 to 6.00"]
]}

Lab book: pKd of CNc1ncc(-c2cccc(S(C)(=O)=O)c2)c2cc(NC(=O)C3CC3)ncc12 [Example 29] noted as ≥ 7.00

Lab book: pKd of CNc1ncc(N2CCCS2(=O)=O)c2cc(NC(=O)C3CC3)ncc12 [Example 58] noted as 6.00 to 7.00

----------
Molecular target: TYK2 JH2 (Homo sapiens)
Construct: purchased DiscoverX (KINOMEscan KdELECT service); host or cells: E. coli BL21-derived (T7 phage display) or HEK-293
Assay: TYK2 JH2 binding assay (KINOMEscan KdELECT competitive binding)
Details: TYK2 JH2 domain, KINOMEscan KdELECT (Assay A); read-out: Biochemical TYK2_JH2_Kd
Each entry below carries its reported Kd.

Reference set (4 entries):
{"columns": ["Compound", "Tested On", "Observation Type", "Test Result"],
 "data": [
  ["CNc1ncc(-c2c(C)cnn2C2CCCCO2)c2cc(NC(=O)C3CC3)ncc12 (stereo not drawn)", "TYK2 JH2 (Homo sapiens)", "Kd", "1000 to 10000 nM"],
  ["CNc1nccc2cc(NC(=O)C3CC3)nnc12", "TYK2 JH2 (Homo sapiens)", "Kd", "100 to 1000 nM"],
  ["CNc1ncc(C2CCOC2=O)c2cc(NC(=O)C3CC3)ncc12 (stereo not drawn)", "TYK2 JH2 (Homo sapiens)", "Kd", "≤ 100 nM"],
  ["CNc1ncc(-c2conc2C)c2cc(NC(=O)C3CC3)ncc12", "TYK2 JH2 (Homo sapiens)", "Kd", "≤ 100 nM"]
]}

Lab book: Kd of "CNc1ncc(-c2ccc(C)s2)c2cc(NC(=O)C3CC3)ncc12" noted as ≤ 100 nM

Lab book: Kd of "CNc1ncc(-n2cccn2)c2cc(NC(=O)C3CC3)ncc12" noted as ≤ 100 nM

Lab book: Kd of "CNc1ncc(-c2nccs2)c2cc(NC(=O)C3CC3)ncc12" noted as ≤ 100 nM

Lab book: Kd of "CNc1ncc(-c2cccc(-c3ncn(C)n3)c2)c2cc(NC(=O)C3CC3)ncc12" noted as ≤ 100 nM

Lab book: Kd of "CNc1ncc(CO)c2cc(NC(=O)C3CC3)ncc12" noted as ≤ 100 nM

----------
Biological target: TYK2 JH2 (Homo sapiens)
Construct: purchased DiscoverX (KINOMEscan KdELECT service); host or cells: E. coli BL21-derived (T7 phage display) or HEK-293
Experiment: TYK2 JH2 binding assay (KINOMEscan KdELECT competitive binding)
Settings: TYK2 JH2 domain, KINOMEscan KdELECT (Assay A); read-out: Biochemical TYK2_JH2_Kd
pKd: −log10 of the molar value.
Observation Type: pKd

Reference set (4 entries):
{"columns": ["Smiles Data", "Tested On", "pKd"],
 "data": [
  ["CNc1ncc(C2=CCCOC2)c2cc(NC(=O)C3CC3)ncc12", "TYK2 JH2 (Homo sapiens)", "≥ 7.00"],
  ["CNc1ncc(-c2ccccc2)c2cc(NC(=O)C3CC3)ncc12", "TYK2 JH2 (Homo sapiens)", "≥ 7.00"],
  ["CNc1ncc(-c2ccccc2SC)c2cc(NC(=O)C3CC3)ncc12", "TYK2 JH2 (Homo sapiens)", "6.00 to 7.00"],
  ["CNc1ncc(-c2ccn(Cc3ncn(C)n3)n2)c2cc(NC(=O)C3CC3)ncc12", "TYK2 JH2 (Homo sapiens)", "≥ 7.00"]
]}

Lab book: pKd of "CNc1ncc(-c2nc(C)co2)c2cc(NC(=O)C3CC3)ncc12" noted as ≥ 7.00

----------
Target: TYK2 JH2 (Homo sapiens, UniProt P29597)
Construct: purchased DiscoverX (KINOMEscan KdELECT service); host or cells: E. coli BL21-derived (T7 phage display) or HEK-293
Assay: TYK2 JH2 binding assay (KINOMEscan KdELECT competitive binding)
Conditions: TYK2 JH2 domain, KINOMEscan KdELECT (Assay A); read-out: Biochemical TYK2_JH2_Kd
Observation Type: Kd

{"columns": ["Compound", "Tested On", "Kd"],
 "data": [
  ["CNc1ncc(-c2cnsc2)c2cc(NC(=O)C3CC3)ncc12 [Example 83]", "TYK2 JH2 (Homo sapiens, UniProt P29597)", "≤ 100 nM"]
]}

Lab book: Kd of CNc1ncc(-c2cc(C)n[nH]2)c2cc(NC(=O)C3CC3)ncc12 [Example 23] noted as ≤ 100 nM

Lab book: Kd of CNc1ncc(-c2nc3cc(N4CC(F)(F)C4)ccn3n2)c2cc(NC(=O)C3CC3)ncc12 [Example 189] noted as ≤ 100 nM

Lab book: Kd of CNc1ncc(C2=CCOC2=O)c2cc(NC(=O)C3CC3)ncc12 [Example 85] noted as 100 to 1000 nM

Lab book: Kd of CNc1ncc(-c2ocnc2C)c2cc(NC(=O)C3CC3)ncc12 [Example 30] noted as ≤ 100 nM

Lab book: Kd of CCc1ccccc1-c1cnc(NC)c2cnc(NC(=O)C3CC3)cc12 [Example 11] noted as 100 to 1000 nM

Lab book: Kd of CNc1ncc(Nc2ccccc2)c2cc(NC(=O)C3CC3)ncc12 [Example 134] noted as 100 to 1000 nM

Lab book: Kd of CNc1ncc(-c2cc(-c3ccccc3)ns2)c2cc(NC(=O)C3CC3)ncc12 [Example 146] noted as ≤ 100 nM

Lab book: Kd of CNc1ncc(-c2ccc(C(=O)N(C)C)cc2)c2cc(NC(=O)C3CC3)ncc12 [Example 170] noted as ≤ 100 nM

----------
Molecular target: TYK2 JH2 (Homo sapiens, UniProt P29597)
Construct: purchased DiscoverX (KINOMEscan KdELECT service); host or cells: E. coli BL21-derived (T7 phage display) or HEK-293
Experiment: TYK2 JH2 binding assay (KINOMEscan KdELECT competitive binding)
Details: TYK2 JH2 domain, KINOMEscan KdELECT (Assay A); read-out: Biochemical TYK2_JH2_Kd
Observation Type: Kd

{"columns": ["Compound", "Kd"],
 "data": [
  ["CNc1ncc(-c2cccc(COC)c2)c2cc(NC(=O)C3CC3)ncc12", "≤ 100 nM"],
  ["CNc1ncc(-c2ccccc2)c2cc(NC(=O)C3(C)CC3)ncc12", "≤ 100 nM"],
  ["CNc1ncc(-c2ccn(Cc3ccccn3)n2)c2cc(NC(=O)C3CC3)ncc12", "≤ 100 nM"],
  ["CNc1ncc(C2CCOCC2)c2cc(NC(=O)C3CC3)ncc12", "≤ 100 nM"],
  ["CNc1ncc(-c2cccc(F)c2)c2cc(NC(=O)C3CC3)ncc12", "≤ 100 nM"]
]}

We next turn to a different compound, shown below.
Lab book: Kd of CNc1ncc(-c2ccn(CC3CCSCC3)n2)c2cc(NC(=O)C3CC3)ncc12 [Example 153A] noted as ≤ 100 nM

----------
Each entry below carries its reported Kd.
Molecular target: TYK2 JH2 (Homo sapiens)
Construct: purchased DiscoverX (KINOMEscan KdELECT service); host or cells: E. coli BL21-derived (T7 phage display) or HEK-293
Experiment: TYK2 JH2 binding assay (KINOMEscan KdELECT competitive binding)
Settings: TYK2 JH2 domain, KINOMEscan KdELECT (Assay A); read-out: Biochemical TYK2_DiscoverX_JH2_BND_Kd

Reference set (6 entries):
{"columns": ["Molecule", "Kd"],
 "data": [
  ["CNc1ncc(C#Cc2ccc(CN3C4CCC3COC4)cc2)c2cc(NC(=O)C3CC3)ncc12", "≤ 100 nM"],
  ["CNc1ncc(-c2nc(-c3ncnn3C)co2)c2cc(NC(=O)C3CC3)ncc12", "≤ 100 nM"],
  ["CNc1ncc(C#Cc2ccc(COC)cc2)c2cc(NC(=O)C3CC3)ncc12", "≤ 100 nM"],
  ["CNc1ncc(C#Cc2ccc3c(c2)OCC(COC)O3)c2cc(NC(=O)C3CC3)ncc12 (centres unmarked)", "≤ 100 nM"],
  ["CNc1ncc(-c2nc3n(n2)CCCC3)c2cc(NC(=O)C3CC3)ncc12", "≤ 100 nM"],
  ["CNc1ncc(/C=C/c2ccc(O)cc2)c2cc(Nc3ccccn3)ncc12", "≤ 100 nM"]
]}

Lab book: Kd of "CNc1ncc(C#Cc2ccc(-c3cnn(C)n3)cc2)c2cc(NC(=O)C3CC3)ncc12" noted as ≤ 100 nM

Lab book: Kd of "CNc1ncc(C#Cc2cc3c(F)cccn3n2)c2cc(NC(=O)C3CC3)ncc12" noted as ≤ 100 nM
